Here's a roundup of IC50 values tested on Coagulation factor X (Homo sapiens), taken from various published works.
ASSAY ENDPOINT: IC50 (nM)

In the examples that follow, each entry is paired with its recorded IC50.
MOLECULE	TARGET	UNIT DESCRIPTOR	RECORDED NUMBER
Cc1cccc(C[C@H](NC(=O)[C@@H](Cc2ccccc2)NS(=O)(=O)Cc2ccccc2)C(=O)N[C@@H](CCCNC(=N)N)C(=O)c2nccs2)c1	Coagulation factor X (Homo sapiens)	nM	160
CN1CCc2nc(C(=O)N3CCN(S(=O)(=O)c4ccc5cc(Cl)ccc5c4)CC3C(=O)N(C)C)sc2C1 (configuration not stated)	Coagulation factor X (Homo sapiens)	nM	130
C#CCN(C)C(=O)CC1CN(S(=O)(=O)c2cc3ccc(Cl)cc3s2)CCN1C(=O)c1ccc(C2=NCCN2C)cc1 (configuration not stated)	Coagulation factor X (Homo sapiens)	nM	19

a. N=C(N)NCCCC(NC(=O)CN1CCN(S(=O)(=O)c2ccc3ccccc3c2)CC1=O)C(=O)c1nccs1 (configuration not stated)
b. O=C(C1CCN(c2ccncc2)CC1)N1CC[C@@H](CNS(=O)(=O)c2ccc(-c3ccc(Cl)s3)s2)C1
c. O=C(Nc1ccc(Cl)cc1C(=O)Nc1ccc(Cl)cn1)c1ccc(-c2cccc(N3CCCC3)c2)cc1
d. CN(CCO)Cc1ccc(C(=O)Nc2ccc(Cl)cc2C(=O)Nc2ccc(Cl)cn2)cc1
Input: Place the items in sequence of falling IC50. Sort the labels as requested; that list is your answer.
Output: d, b, a, c

---

Compiled record: IC50 values for Coagulation factor X (Homo sapiens, UniProt P00742) across several sources.

Illustrative cases are given below, each with its answer.
SMI	IC50
N=C(N)c1ccc(CNC(=O)Cn2c(-c3cccc(N)c3)c(Cl)nc(NC3CCC3)c2=O)cc1F	> 30 µM
C/C(=C(\F)C(=O)Nc1ccc(-c2ccccc2S(N)(=O)=O)cc1)c1cccc(NN)c1	> 11 µM
C/C(=C(/F)C(=O)Nc1ccc(-c2ccccc2S(N)(=O)=O)cc1)c1ccc2nc(N)nc(N)c2c1	> 11 µM

Continue with the next compound.
Input: # query: IC50 of entry `N=C(N)c1ccc(CNC(=O)[C@H](Cc2ccc(N)cc2)NC(=O)[C@@H](CC2CCCCC2)NCC(=O)O)cc1`
Output: > 44 µM

---

pIC50: −log10 of the molar value.
Listing of pIC50 toward Coagulation factor X (Homo sapiens, UniProt P00742), each taken from a published source.

SMI	TARGET	pIC50
Nc1cccc(-c2c(Cl)nc(NC3CCC3)c(=O)n2CC(=O)NCc2ccc3c(N)noc3c2)c1	Coagulation factor X (Homo sapiens, UniProt P00742)	< 4.52

Input: // pIC50 lookup, key: `CC(=O)N[C@@H](CC(C)C)C(=O)N[C@H](C(=O)N[C@@H](CCCN=C(N)N)C(=O)c1nccs1)C(C)C`
Output: < 3.70

Input: Next up: `CN(C)c1ccc(N/C(=C\[N+](=O)[O-])N[C@H]2CCCCN(CC(=O)N3CCCC3)C2=O)cc1`
Output: < 4.47

---

pIC50: −log10 of the molar value.
Field: pIC50. System: Coagulation factor X (Homo sapiens, UniProt P00742). Provenance: assorted publications.
ASSAY ENDPOINT: pIC50

// known answers, use as guide
COMPOUND	pIC50
Cc1cc(C(=O)Nc2ccc(-c3ccccc3S(N)(=O)=O)cn2)n(-c2ccc3cc(Cl)ccc3c2)n1	8.30
C[C@@]1(CO)C[C@@H](O)C[C@@]2(C)[C@@H]3CC[C@@]4(C)[C@H](OC[C@@H]4O)C3=CC[C@H]12	4.75
COc1ccc(-n2cc(C(N)=O)c3ncn(-c4ccc(N5CCOCC5=O)cc4)c(=O)c32)cc1	8.80
N=C(N)c1ccc(C(=O)Nc2ccccc2C(=O)Nc2ccc(Cl)cn2)cc1	8.40

A. N=C(c1ccc(C(=O)N2CCN(S(=O)(=O)c3cc4ccc(Cl)cc4s3)CC2)cc1)N1CCC1
B. N=C(N)NCCCC(NC(=O)CN1CCN(S(=O)(=O)c2cccc(Cl)c2)CC1=O)C(=O)c1nccs1 (centres undefined)
C. Cc1cc2cc(N/C(=C\[N+](=O)[O-])N[C@H]3CCCCN(CC(=O)N4CCCC4)C3=O)ccc2o1
Input: Put the compounds in ascending order of pIC50. # the answer lists labels in the order requested
Output: C, A, B
(C: 7.29, A: 7.60, B: 8.30)
